Assay: Plasma PK in monkeys, powder in capsule
Assay type: in vivo
Settings: male, cynomolgus monkey, po, 15 mg/kg, micronized (d90 5), single oral 15 mg/kg, read-out: AUC0-24 h
Measurement name: AUC(0-t) (µM·h)
Give bare numbers, in µM·h.

Input O=C(COc1ccc(Cl)cc1)NC12CC(c3nnc([C@H]4C[C@@H](OC(F)(F)F)C4)o3)(C1)C2 (single isomer, unassigned) [Form A] , output reported AUC(0-t). 154

----------
Experiment: Plasma PK in monkeys, nanosuspension
Format: in vivo
Settings: male, cynomolgus monkey, po, 25 mg/kg, nanosuspension in deionized water, single oral 25 mg/kg, read-out: Tmax
Measurement name: Tmax
Show the value, then the unit it is measured in.

Input O=C(COc1ccc(Cl)cc1)NC12CC(c3nnc([C@H]4C[C@@H](OC(F)(F)F)C4)o3)(C1)C2 (single isomer, unassigned) [Form A] , output reported Tmax. 4 h
